Catalogue of self-cleavage values
B1: CPEB3 Ribozyme (parent)
chain: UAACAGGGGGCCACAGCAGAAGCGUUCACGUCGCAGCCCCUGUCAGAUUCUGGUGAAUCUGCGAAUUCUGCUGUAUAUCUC

Variants of: B1
Protocol summary: self-cleavage, relative activity (ratio to wild type); higher = more cleavage; in vitro, sequencing
The reply should be a number, written without any unit.

Recorded results for 5 variants are shown here.
UAACAGGGGGCCACAGCAGAAACGUUCACGUCGCAGCCCCUGUCAGAUUCUGGUGAGUCUGCGAAUUCUGCUGUAUAUCUC [G22A A57G] :: 0.35
UAACGUGGGGCCACAGCAGAAGCGUUCACGUCGCAGCCCCUGUCAGAUUCUGGUGAAUCUGCGAAUUCUGCUGUAUAUCUC [A5G G6U] :: 0.23
UAACAGGGGGCCACAGCAGCAGAGUUCACGUCGCAGCCCCUGUCAGAUUCUGGUGAAUCUGCGAAUUCUGCUGUAUAUCUC [A20C C23A] :: 0.09
UAACAGGGGGCCUCAGCAGAAGCGUUCACGUCGCAGCCCCUGUCAGAUUCUGGUGAAUCUGCGAAUUCUGCUGUAUAACUC [A13U U78A] :: 1.21
UAACAAGGGGCCACAGCAGAAGCGUUCACGUCGCAGCCCCUGUCAGAUUCUGGUGGAUCUGCGAAUUCUGCUGUAUAUCUC [G6A A56G] :: 0.28

--- query ---
Lookup: State the recorded self-cleavage for this entry: UAACAGGGCGCCACAGCAGAAGCGUUCACGUCGCAGCCCCUGUCAGAUUCUGGUGAAUCUGCGAAUUCUGCUGUGUAUCUC [G9C A75G]
Found: 0.17

From: the RNAGym collection of RNA variant scans (doi:10.1093/nar/gkz1192)
